# system_under_test: T1, IL-7 receptor (IL-7Rα/γc heterodimer) on primary human T cells (human, UniProt P16871 21-459; P31785 23-369)
# T1 sequence (looked up) 1: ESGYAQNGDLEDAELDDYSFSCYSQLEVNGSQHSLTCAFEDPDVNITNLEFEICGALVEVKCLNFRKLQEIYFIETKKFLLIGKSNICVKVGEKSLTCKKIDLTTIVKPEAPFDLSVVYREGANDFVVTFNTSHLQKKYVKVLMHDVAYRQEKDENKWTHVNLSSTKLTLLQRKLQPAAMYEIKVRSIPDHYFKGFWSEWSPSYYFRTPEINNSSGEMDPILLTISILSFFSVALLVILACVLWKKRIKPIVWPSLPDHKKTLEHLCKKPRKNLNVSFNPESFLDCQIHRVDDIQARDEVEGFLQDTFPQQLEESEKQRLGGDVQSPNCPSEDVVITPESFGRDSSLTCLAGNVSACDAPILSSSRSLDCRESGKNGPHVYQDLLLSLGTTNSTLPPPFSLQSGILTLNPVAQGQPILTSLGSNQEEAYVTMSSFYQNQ
# T1 sequence (looked up) 2: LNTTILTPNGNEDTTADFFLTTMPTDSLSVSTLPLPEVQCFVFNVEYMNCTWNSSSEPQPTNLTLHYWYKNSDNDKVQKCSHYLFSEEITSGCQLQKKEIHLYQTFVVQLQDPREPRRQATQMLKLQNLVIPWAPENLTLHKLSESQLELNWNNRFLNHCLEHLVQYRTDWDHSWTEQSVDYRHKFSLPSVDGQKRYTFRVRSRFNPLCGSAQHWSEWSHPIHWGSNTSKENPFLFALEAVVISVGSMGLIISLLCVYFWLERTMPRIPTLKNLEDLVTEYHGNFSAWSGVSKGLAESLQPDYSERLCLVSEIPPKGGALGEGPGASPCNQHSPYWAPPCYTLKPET
# assay_comment: cell-based or functional assay
Bridges are numbered along the chain shown (N, C = ends). [ ]: non-standard residue; d: D form. glutaryl‑PEG9‑azide = glutaryl-PEG9-azide group on the N-terminal amine; hSer = N[C@@H](CCO)C(=O)O; Nle = CCCC[C@H](N)C(=O)O
EC50 pSTAT5, CD4 Treg values, listed per item
Give the number; nM is assumed, so skip it.

Worked cases, EC50 pSTAT5, CD4 Treg given:
{"columns": ["binder", "EC50 pSTAT5, CD4 Treg (nM)"],
 "data": [
  ["CMP-107, synthetic IL-7 V15W of SEQ ID NO: 5 with glutaryl-PEG9-azide at the N-terminus (ligand, disulfide 34-129, 47-141, 2-92, also called synthetic IL-7 with V15W) {glutaryl‑PEG9‑azide}-DCDIEGKDGKQYESWL[Nle]VSIDQLLDS[Nle]KEIGSNCL[hSer]NEFNFFKRHICDANKEG[Nle]FLFRAARKLRQFLK[Nle]NSTGDF[hSer]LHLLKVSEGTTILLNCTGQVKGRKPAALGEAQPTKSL[hSer]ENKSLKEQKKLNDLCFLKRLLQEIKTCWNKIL[Nle]GTKEH-NH2", 1.2],
  ["CMP-110, synthetic IL-7 G85N of SEQ ID NO: 7 with glutaryl-PEG9-azide at the N-terminus (ligand, disulfide 34-129, 47-141, 2-92, The suffix is not explained; also called CMP-110-001) {glutaryl‑PEG9‑azide}-DCDIEGKDGKQYESVL[Nle]VSIDQLLDS[Nle]KEIGSNCL[hSer]NEFNFFKRHICDANKEG[Nle]FLFRAARKLRQFLK[Nle]NSTGDF[hSer]LHLLKVSENTTILLNCTGQVKGRKPAALGEAQPTKSL[hSer]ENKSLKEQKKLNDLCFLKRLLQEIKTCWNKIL[Nle]GTKEH-NH2", 67],
  ["CMP-117, recombinant IL-7 Q11F with His-tag (ligand) DCDIEGKDGKFYESVLMVSIDQLLDSMKEIGSNCLNNEFNFFKRHICDANKEGMFLFRAARKLRQFLKMNSTGDFDLHLLKVSEGTTILLNCTGQVKGRKPAALGEAQPTKSLEENKSLKEQKKLNDLCFLKRLLQEIKTCWNKILMGTKEHVDHHHHHH", 0.01],
  ["CMP-036, synthetic IL-7 of SEQ ID NO: 3 (no N-terminal conjugation handle) (ligand, ends and bridges not checked) DCDIEGKDGKQYESVL[Nle]VSIDQLLDS[Nle]KEIGSNCL[hSer]NEFNFFKRHICDANKEG[Nle]FLFRAARKLRQFLK[Nle]NSTGDF[hSer]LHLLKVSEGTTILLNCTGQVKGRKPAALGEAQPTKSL[hSer]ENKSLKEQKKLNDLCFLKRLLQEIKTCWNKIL[Nle]GTKEH", 0.015]
]}

Proceed to the following item.
So what's the measured EC50 pSTAT5, CD4 Treg for this one? CMP-113, synthetic IL-7 C2A, C92A of SEQ ID NO: 10 with glutaryl-PEG9-azide at the N-terminus (ligand, ends and bridges not checked) {glutaryl‑PEG9‑azide}-DADIEGKDGKQYESVL[Nle]VSIDQLLDS[Nle]KEIGSNCL[hSer]NEFNFFKRHICDANKEG[Nle]FLFRAARKLRQFLK[Nle]NSTGDF[hSer]LHLLKVSEGTTILLNATGQVKGRKPAALGEAQPTKSL[hSer]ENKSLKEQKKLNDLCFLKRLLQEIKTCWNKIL[Nle]GTKEH 0.18
